Provenance of the data: patent US7635572B2

tested_target: plurality of kinases (Table 5) (Homo sapiens)
method_notes: Further analysis of a plurality of inhibitors and a plurality of kinases on microarray (Example IX, Table 5)
Type: biochemical
experimental_setup: plate C3; inhibitor 100 uM
property: Inhibition level, STK16

query: Requested read-out: Inhibition level, STK16. Entry: COc1cc2ncnc(Nc3cccc(Cl)c3)c2cc1OC
result: 0

query: Give its Inhibition level, STK16 value. Item: CC(=O)c1c(O)c(C)c(O)c(Cc2c(O)c3c(c(C(=O)/C=C/c4ccccc4)c2O)OC(C)(C)C=C3)c1O
result: 0

query: Would you kindly share the measured Inhibition level, STK16 for O=c1c(-c2ccc(O)cc2)coc2cc(O)cc(O)c12 ?
result: 0

query: Reported Inhibition level, STK16 for Cn1cc(C2=C(c3cn(CCCSC(=N)N)c4ccccc34)C(=O)NC2=O)c2ccccc21 : what is it?
result: 1

* * *

Inhibition level, FER values by entry
tested_target: plurality of kinases (Table 5) (Homo sapiens)
method_notes: Further analysis of a plurality of inhibitors and a plurality of kinases on microarray (Example IX, Table 5)
Format: biochemical
experimental_setup: plate H5; inhibitor 100 uM
Lab note: record the figure alone, no unit after it.

The following molecules have reported results that may help.
> print(dat)
                                   molecule  measured.value
1  O=S(=O)(NCCNC/C=C/c1ccc(Br)cc1)c1cccc2cnccc12 [H-89]               2
2  N#C/C(=C/c1ccc(O)c(O)c1)C(=O)NCc1ccccc1 [AG 490]               2
3  Cn1cc(C2=C(c3cn(CCCSC(=N)N)c4ccccc34)C(=O)NC2=O)c2ccccc21 [Ro-31-8220]               2
4  CC(C)(C)n1nc(-c2ccc(Cl)cc2)c2c(N)ncnc21 [PP2]               2

query: Need Inhibition level, FER of O=c1c(O)c(-c2ccc(O)c(O)c2)oc2cc(O)cc(O)c12 [Quercetin] , thanks.
result: 1

query: Quick one: Inhibition level, FER for O=c1c(-c2ccc(O)cc2)coc2cc(O)cc(O)c12 [Genistein] ?
result: 2

query: Fill in: Inhibition level, FER of COc1cc2ncnc(Nc3cccc(Cl)c3)c2cc1OC [AG 1478] is ___
result: 1

query: Which Inhibition level, FER is reported for this molecule? CC(=O)c1c(O)c(C)c(O)c(Cc2c(O)c3c(c(C(=O)/C=C/c4ccccc4)c2O)OC(C)(C)C=C3)c1O [Rottlerin (Mallotoxin)]
result: 2

* * *

Listed next: entries and their corresponding Inhibition level, PCTK1.
tested_target: plurality of kinases (Table 5) (Homo sapiens, UniProt Q00536)
Sequence (Q00536 whole entry): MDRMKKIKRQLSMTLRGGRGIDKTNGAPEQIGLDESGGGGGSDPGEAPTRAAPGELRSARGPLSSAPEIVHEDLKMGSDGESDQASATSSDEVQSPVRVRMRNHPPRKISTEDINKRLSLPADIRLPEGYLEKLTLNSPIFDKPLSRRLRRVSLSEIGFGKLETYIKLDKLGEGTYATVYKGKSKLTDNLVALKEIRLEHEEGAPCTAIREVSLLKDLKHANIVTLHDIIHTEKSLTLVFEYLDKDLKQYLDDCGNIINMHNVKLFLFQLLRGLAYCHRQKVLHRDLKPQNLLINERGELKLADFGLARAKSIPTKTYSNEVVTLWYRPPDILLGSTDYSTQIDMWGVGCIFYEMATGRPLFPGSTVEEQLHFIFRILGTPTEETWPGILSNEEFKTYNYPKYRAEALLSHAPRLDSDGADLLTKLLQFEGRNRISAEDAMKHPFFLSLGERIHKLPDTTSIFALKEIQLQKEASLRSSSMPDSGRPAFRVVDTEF
method_notes: Further analysis of a plurality of inhibitors and a plurality of kinases on microarray (Example IX, Table 5)
Type: biochemical
experimental_setup: plate A3; inhibitor 100 uM
Reply: number alone, nothing else.

Record excerpt, results attached:
> print(dat)
                                   molecule  measured.value
1  O=c1c(O)c(-c2ccc(O)c(O)c2)oc2cc(O)cc(O)c12 [Quercetin]               0
2  COc1cc2ncnc(Nc3cccc(Cl)c3)c2cc1OC [AG 1478]               0
3  CC(=O)c1c(O)c(C)c(O)c(Cc2c(O)c3c(c(C(=O)/C=C/c4ccccc4)c2O)OC(C)(C)C=C3)c1O [Rottlerin (Mallotoxin)]               0
4  O=S(=O)(NCCNC/C=C/c1ccc(Br)cc1)c1cccc2cnccc12 [H-89]               2

From here, focus on the item given below.
query: So what's the measured Inhibition level, PCTK1 for this one? N#C/C(=C/c1ccc(O)c(O)c1)C(=O)NCc1ccccc1 [AG 490]
result: 0

* * *

tested_target: plurality of kinases (Table 5) (Homo sapiens, UniProt Q00536)
method_notes: Further analysis of a plurality of inhibitors and a plurality of kinases on microarray (Example IX, Table 5)
Format: biochemical
experimental_setup: plate A3; inhibitor 100 uM
Entries and their measured Inhibition level, PCTK1 follow.

Completed entries (count: 2):
> print(dat)
                                        smi                             tested.target  measured.value
1      O=c1c(-c2ccc(O)cc2)coc2cc(O)cc(O)c12  plurality of kinases (Table 5) (Homo sapiens, UniProt Q00536)               1
2  Cn1cc(C2=C(c3cn(CCCSC(=N)N)c4ccccc34)C(=O)NC2=O)c2ccccc21  plurality of kinases (Table 5) (Homo sapiens, UniProt Q00536)               0

Now, please, on to the next molecule.
query: Consider the molecule shown here: CC(C)(C)n1nc(-c2ccc(Cl)cc2)c2c(N)ncnc21 What is its recorded Inhibition level, PCTK1?
result: 1

* * *

Reported Inhibition level, FGFR2 values follow for various compounds
tested_target: UniProt P21802
Sequence (P21802 22-821): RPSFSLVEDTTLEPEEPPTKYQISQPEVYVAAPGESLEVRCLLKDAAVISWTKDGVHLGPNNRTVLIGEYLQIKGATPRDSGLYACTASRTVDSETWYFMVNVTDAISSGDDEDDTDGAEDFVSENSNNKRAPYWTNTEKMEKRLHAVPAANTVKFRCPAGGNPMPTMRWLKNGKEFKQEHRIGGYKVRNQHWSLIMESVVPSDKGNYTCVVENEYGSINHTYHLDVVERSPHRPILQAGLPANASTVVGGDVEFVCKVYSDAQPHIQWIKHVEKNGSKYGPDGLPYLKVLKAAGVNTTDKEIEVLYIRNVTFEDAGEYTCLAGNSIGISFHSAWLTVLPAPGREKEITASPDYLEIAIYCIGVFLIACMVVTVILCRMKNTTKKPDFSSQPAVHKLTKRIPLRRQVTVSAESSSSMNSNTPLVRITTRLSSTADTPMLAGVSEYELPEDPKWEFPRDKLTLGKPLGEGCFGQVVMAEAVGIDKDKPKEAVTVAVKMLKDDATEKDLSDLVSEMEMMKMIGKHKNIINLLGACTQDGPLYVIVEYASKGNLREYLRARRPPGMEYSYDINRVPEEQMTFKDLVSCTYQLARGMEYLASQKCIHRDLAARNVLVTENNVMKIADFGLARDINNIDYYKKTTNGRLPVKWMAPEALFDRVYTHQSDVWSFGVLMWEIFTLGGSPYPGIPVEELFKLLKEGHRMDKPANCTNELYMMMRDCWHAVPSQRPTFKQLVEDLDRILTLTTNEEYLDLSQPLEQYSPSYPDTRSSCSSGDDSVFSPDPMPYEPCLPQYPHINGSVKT
method_notes: Further analysis of a plurality of inhibitors and a plurality of kinases on microarray (Example IX, Table 5);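 for Inhibition level, FGFR2: level 0 none or unclear then 1 little or marginal then 2 substantial inhibition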
Type: biochemical
experimental_setup: plate B4; inhibitor 100 uM
Form: value (number only, do not type unit).

> print(dat)
                                        smi                 property  measured.value
1  O=c1c(O)c(-c2ccc(O)c(O)c2)oc2cc(O)cc(O)c12  Inhibition level, FGFR2               0
2  CC(=O)c1c(O)c(C)c(O)c(Cc2c(O)c3c(c(C(=O)/C=C/c4ccccc4)c2O)OC(C)(C)C=C3)c1O  Inhibition level, FGFR2               0
3      O=c1c(-c2ccc(O)cc2)coc2cc(O)cc(O)c12  Inhibition level, FGFR2               2

query: Recorded Inhibition level, FGFR2 of COc1cc2ncnc(Nc3cccc(Cl)c3)c2cc1OC , please.
result: 2

query: Need Inhibition level, FGFR2, item O=S(=O)(NCCNC/C=C/c1ccc(Br)cc1)c1cccc2cnccc12
result: 2

query: So what's the measured Inhibition level, FGFR2 for this one? N#C/C(=C/c1ccc(O)c(O)c1)C(=O)NCc1ccccc1
result: 2

query: Record request: Inhibition level, FGFR2 value, item Cn1cc(C2=C(c3cn(CCCSC(=N)N)c4ccccc34)C(=O)NC2=O)c2ccccc21
result: 2

query: Any idea what Inhibition level, FGFR2 was measured for CC(C)(C)n1nc(-c2ccc(Cl)cc2)c2c(N)ncnc21 ?
result: 2

* * *

Reported Inhibition level, LYN is given for each of the following molecules.
tested_target: UniProtKB P07948
Sequence (P07948 whole entry): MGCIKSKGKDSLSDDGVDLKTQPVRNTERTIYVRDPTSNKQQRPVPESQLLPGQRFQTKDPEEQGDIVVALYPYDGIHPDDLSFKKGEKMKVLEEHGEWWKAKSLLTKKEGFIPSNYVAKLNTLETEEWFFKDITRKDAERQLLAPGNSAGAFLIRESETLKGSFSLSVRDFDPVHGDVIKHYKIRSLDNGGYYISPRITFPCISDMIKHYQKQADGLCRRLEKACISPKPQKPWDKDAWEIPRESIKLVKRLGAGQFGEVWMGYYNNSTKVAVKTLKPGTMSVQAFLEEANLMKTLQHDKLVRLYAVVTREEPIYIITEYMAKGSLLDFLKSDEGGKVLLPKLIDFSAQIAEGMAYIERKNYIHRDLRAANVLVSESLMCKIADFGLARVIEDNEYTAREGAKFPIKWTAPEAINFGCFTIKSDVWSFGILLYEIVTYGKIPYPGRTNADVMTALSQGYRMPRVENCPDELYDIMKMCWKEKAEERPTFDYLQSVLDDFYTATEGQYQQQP
method_notes: Further analysis of a plurality of inhibitors and a plurality of kinases on microarray (Example IX, Table 5)
Assay type: biochemical
experimental_setup: plate A5, Domain 0; inhibitor 100 uM
Lab note: jot the number down without any unit.

> print(dat)
                                 smi               property  measured.value
1  COc1cc2ncnc(Nc3cccc(Cl)c3)c2cc1OC  Inhibition level, LYN               2

query: Query: Inhibition level, LYN; subject: O=S(=O)(NCCNC/C=C/c1ccc(Br)cc1)c1cccc2cnccc12
result: 2

query: Which value of Inhibition level, LYN has been reported for CC(=O)c1c(O)c(C)c(O)c(Cc2c(O)c3c(c(C(=O)/C=C/c4ccccc4)c2O)OC(C)(C)C=C3)c1O in the records?
result: 2

query: Param item = CC(C)(C)n1nc(-c2ccc(Cl)cc2)c2c(N)ncnc21 ; retrieve measured Inhibition level, LYN.
result: 2

query: Value lookup for Inhibition level, LYN; key = N#C/C(=C/c1ccc(O)c(O)c1)C(=O)NCc1ccccc1
result: 2

query: Would you mind telling me what Inhibition level, LYN value was observed for O=c1c(O)c(-c2ccc(O)c(O)c2)oc2cc(O)cc(O)c12 ?
result: 2

query: # query: Inhibition level, LYN of entry Cn1cc(C2=C(c3cn(CCCSC(=N)N)c4ccccc34)C(=O)NC2=O)c2ccccc21
result: 2

query: Need Inhibition level, LYN, item O=c1c(-c2ccc(O)cc2)coc2cc(O)cc(O)c12
result: 2

* * *

tested_target: plurality of kinases (Table 5) (Homo sapiens)
method_notes: Further analysis of a plurality of inhibitors and a plurality of kinases on microarray (Example IX, Table 5)
Type: biochemical
experimental_setup: plate G1; inhibitor 100 uM
Quick list: Inhibition level, TBK1 per entry.
// response body must contain only the number

For orientation, consider the following solved cases.
> print(dat)
                                        smi                property  measured.value
1  Cn1cc(C2=C(c3cn(CCCSC(=N)N)c4ccccc34)C(=O)NC2=O)c2ccccc21  Inhibition level, TBK1               2
2   CC(C)(C)n1nc(-c2ccc(Cl)cc2)c2c(N)ncnc21  Inhibition level, TBK1               1
3      O=c1c(-c2ccc(O)cc2)coc2cc(O)cc(O)c12  Inhibition level, TBK1               2
4  CC(=O)c1c(O)c(C)c(O)c(Cc2c(O)c3c(c(C(=O)/C=C/c4ccccc4)c2O)OC(C)(C)C=C3)c1O  Inhibition level, TBK1               1
5  O=S(=O)(NCCNC/C=C/c1ccc(Br)cc1)c1cccc2cnccc12  Inhibition level, TBK1               2
6         COc1cc2ncnc(Nc3cccc(Cl)c3)c2cc1OC  Inhibition level, TBK1               2
7   N#C/C(=C/c1ccc(O)c(O)c1)C(=O)NCc1ccccc1  Inhibition level, TBK1               2

Here is another compound to look at.
query: Requested field: Inhibition level, TBK1. Item: O=c1c(O)c(-c2ccc(O)c(O)c2)oc2cc(O)cc(O)c12
result: 0
